tested on: FM3A; assay: Antiproliferative activity against mouse FM3A cells after 2 days; assay type: functional, cell-based; conditions: 48 h
Assay endpoint: IC50 (µM)
Hi! Could you send only the number? It should be in µM, unit omitted.

Sample answers from the record:
[[record]]
compound_structure = "COc1cc(C(=O)c2ccc(-c3ccc(Cl)cc3)s2)cc(OC)c1OC"
assay_endpoint = "IC50"
units_of_measure = "µM"
result_value = 4.6

[[record]]
compound_structure = "COc1ccc(-c2ccc(C(=O)c3cc(OC)c(OC)c(OC)c3)s2)cc1"
assay_endpoint = "IC50"
units_of_measure = "µM"
result_value = 2.4

[[record]]
compound_structure = "COc1cccc(-c2ccc(C(=O)c3cc(OC)c(OC)c(OC)c3)s2)c1"
assay_endpoint = "IC50"
units_of_measure = "µM"
result_value = 2.4

[[record]]
compound_structure = "COc1cc(C(=O)c2ccc(-c3cccc(F)c3)s2)cc(OC)c1OC"
assay_endpoint = "IC50"
units_of_measure = "µM"
result_value = 5.6


Turning to the following molecule.
input: Give IC50 for COc1ccc(/C=C/C(=O)c2cc(OC)c(OC)c(OC)c2)cc1
output: 8.4

----------
Below, each of the compounds is paired with its reported inhibition value.
species on record: Bos taurus; assay: Displacement of [3H]colchicine from bovine brain tubulin at 1 uM
Hi! Could you send only the number? It should be in %, unit omitted.

Sample answers from the record:
[[record]]
compound_structure = "COc1cc(C(=O)c2ccc(-c3ccccc3)s2)cc(OC)c1OC"
assay_endpoint = "inhibition"
result_value = 74

[[record]]
compound_structure = "COc1ccc(-c2ccc(C(=O)c3cc(OC)c(OC)c(OC)c3)s2)cc1OC"
assay_endpoint = "inhibition"
result_value = 28

[[record]]
compound_structure = "COc1ccccc1-c1ccc(C(=O)c2cc(OC)c(OC)c(OC)c2)s1"
assay_endpoint = "inhibition"
result_value = 74


input: Give inhibition for COc1cc(C(=O)c2ccc(-c3ccc(F)cc3)s2)cc(OC)c1OC
output: 66

input: Give inhibition for COc1cc(C(=O)c2ccc(-c3cccs3)s2)cc(OC)c1OC
output: 82

input: Give inhibition for COc1cc(C(=O)c2ccc(-c3ccccc3F)s2)cc(OC)c1OC
output: 66

input: Give inhibition for COc1cc(C(=O)c2ccc(-c3ccccc3C)s2)cc(OC)c1OC
output: 49

input: Give inhibition for COc1cc(C(=O)c2ccc(-c3ccc(C)cc3)s2)cc(OC)c1OC
output: 74

----------
assay: Inhibition of bovine brain tubulin polymerization for 20 mins; parameters: species or system Bos taurus
Assay endpoint: IC50 (nM)
Hi! Could you send only the number? It should be in nM, unit omitted.

Sample answers from the record:
[[record]]
compound_structure = "COc1ccc(-c2ccc(C(=O)c3cc(OC)c(OC)c(OC)c3)s2)cc1OC"
assay_endpoint = "IC50"
result_value = 3000

[[record]]
compound_structure = "COc1ccccc1-c1ccc(C(=O)c2cc(OC)c(OC)c(OC)c2)s1"
assay_endpoint = "IC50"
result_value = 1300

[[record]]
compound_structure = "COc1cc(C(=O)c2ccc(-c3cccs3)s2)cc(OC)c1OC"
assay_endpoint = "IC50"
result_value = 800

[[record]]
compound_structure = "COc1ccc(/C=C\\c2cc(OC)c(OC)c(OC)c2)cc1O"
assay_endpoint = "IC50"
result_value = 1400


input: Give IC50 for COc1cc(C(=O)c2ccc(-c3ccccc3F)s2)cc(OC)c1OC
output: 2000

input: Give IC50 for COc1cc(C(=O)c2ccc(-c3ccccc3C)s2)cc(OC)c1OC
output: 1700
